Origin of values: the supplement of paper PMC11780869

Readings of cleaved RNA product abundance for the listed sequences
Tested on: Bacillus subtilis
Experiment: cleaved RNA product abundance (RNA/gDNA barcode ratio) relative to median wild-type variant (ratio to wild type); higher = more accumulation of the downstream cleavage product
Details: experiment (reporter, strain, medium): exp 8a: truncated aprE reporter, strain BJT201 with 2% xylose (RNase J1 expressed); cleavage site: glnRA (positions -5 to +31 mutated)
Answer using only a numeral; do not append any unit.

[Q] Report cleaved RNA product abundance for CGACATGTCCCGCTTCTTTCATTAATCCGTTAGCAATTGTTTTGCTATATACATTTAACTTTTAAGAGGAGGAAT
[A] 1.06

[Q] Please report cleaved RNA product abundance for the following sequence: CGACATGTCCCGCTTCTTTCATTAATCCGTTAGCAACTGTTTTGCGATATACATTTACCATTTAAGAGGAGGAAT
[A] 0.637

[Q] Could you please provide reported cleaved RNA product abundance for CGACATGTCCCGCTTCTTTCATTAATCTGTTAGCAACTGTTTTGCTATATACAGTTACCTTTTAAGAGGAGGAAT ? Thanks!
[A] 0.249

[Q] Return value of cleaved RNA product abundance for input CGACATGTCCCGCTTCTTTCATTAATCCGTTAGCAACTGTTGTACTATATACATTTACCTTTTAAGAGGAGGAAT , no commentary.
[A] 0.713

[Q] Return reported cleaved RNA product abundance. Input sequence: CGACATGTCCCGCTTCTTTCATTAATCCGTTAGCAACAGTTTTTCTATATACATTTACCTTTTAAGAGGAGGAAT
[A] 0.345

[Q] Determine its reported cleaved RNA product abundance: CGACATGTCCCGCTTCTTTCATTAATCCGTTAGCAACTGTTTTCCTATATACATATACCTTTTAAGAGGAGGAAT
[A] 0.353

[Q] Please look at this sequence and report its cleaved RNA product abundance: CGACATGTCCCGCTTCTTTCATTAATCCGTTAGCAACTGTTTTGATATATACATTTACATTTTAAGAGGAGGAAT
[A] 0.372

[Q] Kindly indicate its recorded cleaved RNA product abundance. Item: CGACATGTCCCGCTTCTTTCATTAATCCGTGAGCAACTGTTTAGCTATATACATTTACCTTTTAAGAGGAGGAAT
[A] 0.335

[Q] Quick one: give measured cleaved RNA product abundance for CGACATGTCCCGCTTCTTTCATTAATCCGTTAGCAAGTGATTTGCTATATACATTTACCTTTTAAGAGGAGGAAT
[A] 1.25

[Q] Answer with reported cleaved RNA product abundance of CGACATGTCCCGCTTCTTTCATTAATCCGTTAGGAACAGTTTTGCTATATACATTTACCTTTTAAGAGGAGGAAT
[A] 0.434

[Q] Identify cleaved RNA product abundance associated with the sequence CGACATGTCCCGCTTCTTTCATTAATCCGTTATCAACTGTTTTGCTATATAAATTTACCTTTTAAGAGGAGGAAT
[A] 0.243

[Q] Respond only with cleaved RNA product abundance recorded for CGACATGTCCCGCTTCTTTCATTAATCCGTTAGCATCTGATTTGCTATATACATTTACCTTTTAAGAGGAGGAAT
[A] 1.34

[Q] Item CGACATGTCCCGCTTCTTTCATTAATCAGTAAGCAACTGTTTTGCTATATACATTTACCTTTTAAGAGGAGGAAT : provide cleaved RNA product abundance
[A] 0.489

[Q] Using known records, supply cleaved RNA product abundance for CGACATGTCCCGCTTCTTTCATTAATCCGTTAGCAACTCTTTTGCTATATACATTTAACTTTTAAGAGGAGGAAT
[A] 1.36

[Q] Fill in cleaved RNA product abundance for record CGACATGTCCCGCTTCTTTCATTAAACCGTTTGCAACTGTTTTGCTATATACATTTACCTTTTAAGAGGAGGAAT
[A] 0.331

[Q] For the sequence CGACATGTCCCGCTTCTTTCATTAATCCATTAGCAAATGTTTTGCTATATACATTTACCTTTTAAGAGGAGGAAT , give its reported cleaved RNA product abundance.
[A] 1.18

[Q] Input CGACATGTCCCGCTTCTTTCATTAATGCGTTAGCAACTGTTTTGCTATATACATTTACATTTTAAGAGGAGGAAT , output reported cleaved RNA product abundance.
[A] 0.652

[Q] Please give the documented cleaved RNA product abundance of CGACATGTCCCGCTTCTTTCATTAATCCGATAGCAACTGTTTTTCTATATACATTTACCTTTTAAGAGGAGGAAT
[A] 0.413

[Q] Quickly give me recorded cleaved RNA product abundance for CGACATGTCCCGCTTCTTTCATTAATCCGTTAGCAACTTTTTTGCTATATACATATACCTTTTAAGAGGAGGAAT
[A] 2.12

---

Tested on: Bacillus subtilis
Assay: cleaved RNA product abundance (RNA/gDNA barcode ratio) relative to median wild-type variant (ratio to wild type); higher = more accumulation of the downstream cleavage product
Conditions: experiment (reporter, strain, medium): exp 4a: truncated aprE reporter, strain BJT201 with 2% xylose (RNase J1 expressed); cleavage site: cggR-gapA (positions -7 to +36 mutated)
quantity: cleaved RNA product abundance
Answer with a number only.

- sequence_chain: "ACAGACGAAGGAGCCGCAAAGAAGCTATTAAGAGATGAATAATCCCTCAATATAAATATCTCTCACTTATTTAAA"
  cleaved RNA product abundance: 0.123
- sequence_chain: "ACAGACGAAGGAGCCGCAAAGAAGTTATTAAGAGATGAATAATCCCTGAATATAAATATCTCTCACTTATTTAAA"
  cleaved RNA product abundance: 0.0805
- sequence_chain: "ACAGACGAAGGAGCCGCATAGAAGTTATTAAAGGATGAATAATCCCTCAATATAAATATCTCTCACTTATTTAAA"
  cleaved RNA product abundance: 0.199
- sequence_chain: "ACAGACGAAGGAGCCGCAAAGAAGTTATTAAGTGATGAATAATTCCTCAATATAAATATCTCTCACTTATTTAAA"
  cleaved RNA product abundance: 0.14

[Q] Annotate the sequence ACAGACGAAGGAGCCGCAAAGAAGTTATTAAGGGAAGAATAATACCTCAATATAAATATCTCTCACTTATTTAAA with its measured cleaved RNA product abundance.
[A] 0.156

[Q] Consider the sequence ACAGACGAAGGAGCCGCAAAGAAGTTATTAAGCGATGAATAATCCCTCAATATAAACATCTCTCACTTATTTAAA and give its recorded cleaved RNA product abundance.
[A] 0.0627

[Q] Supply recorded cleaved RNA product abundance for ACAGACGAAGGAGCCGCTAAGAAGTTATTAAGGGATGAATAATCCCCCAATATAAATATCTCTCACTTATTTAAA here.
[A] 0.342

---

This section presents sequences with their documented cleaved RNA product abundance values.
System: Bacillus subtilis
Test: cleaved RNA product abundance (RNA/gDNA barcode ratio) relative to median wild-type variant (ratio to wild type); higher = more accumulation of the downstream cleavage product
Settings: experiment (reporter, strain, medium): exp 2b: truncated aprE reporter, strain BJT200; cleavage site: cggR-gapA (positions -7 to +36 mutated)
# output: bare number, no unit

- sequence_chain: "ACAGACGAAGGAGCCGCAAAGGAGTTATTAAGGGATGAATAATTCCTCAATATAAATATCTCTCACTTATTTAAA"
  cleaved RNA product abundance: 0.328

[Q] Give the measured cleaved RNA product abundance for ACAGACGAAGGAGCCGCAAAGAAGTTATTAAGGGATGAATAATCCCTCCACATAAATATCTCTCACTTATTTAAA
[A] 0.108

[Q] Identify the reported cleaved RNA product abundance for the following entry. ACAGACGAAGGAGCCGCAAAGAAATTATTAAGGGATGAATAATCCCTCAATAAAAATATCTCTCACTTATTTAAA
[A] 0.178

[Q] Fill in reported cleaved RNA product abundance for this entry: ACAGACGAAGGAGCCGCAAAAAAGTTATTAAGGGATGAGTAATCCCTCAATATAAATATCTCTCACTTATTTAAA
[A] 0.481

[Q] Answer with reported cleaved RNA product abundance of ACAGACGAAGGAGCCGCAAAGAAGTTATTAAGGGATGAATAATCCTTCAAAATAAATATCTCTCACTTATTTAAA
[A] 0.259

[Q] Annotate the sequence ACAGACGAAGGAGCCGCAAAGAAGTTATTAAGGGATGAATAATCACTTAATATAAATATCTCTCACTTATTTAAA with its measured cleaved RNA product abundance.
[A] 0.584

[Q] Report measured cleaved RNA product abundance; entry is ACAGACGAAGGAGCCGCAAAGAAGTTATTAAGTAATGAATAATCCCTCAATATAAATATCTCTCACTTATTTAAA
[A] 0.102

---

Test system: Bacillus subtilis
Experiment: cleaved RNA product abundance (RNA/gDNA barcode ratio) relative to median wild-type variant (ratio to wild type); higher = more accumulation of the downstream cleavage product
Conditions: experiment (reporter, strain, medium): exp 4a: truncated aprE reporter, strain BJT201 with 2% xylose (RNase J1 expressed); cleavage site: cggR-gapA (positions -7 to +36 mutated)
quantity: cleaved RNA product abundance
Answer using only a numeral; do not append any unit.

For orientation, consider the following solved cases.
- sequence_chain: "ACAGACGAAGGAGCCGCATAGAAGTTATTAAGGGATGAATAATCCCTCAACATAAATATCTCTCACTTATTTAAA"
  measured_on: "Bacillus subtilis"
  quantity: "cleaved RNA product abundance"
  assay_value: 0.317
- sequence_chain: "ACAGACGAAGGAGCCGCAAAGCAGTTATTAAGGGATGAAAAATCCCTCAATATAAATATCTCTCACTTATTTAAA"
  measured_on: "Bacillus subtilis"
  quantity: "cleaved RNA product abundance"
  assay_value: 0.687
- sequence_chain: "ACAGACGAAGGAGCCGCAAAGAAGTTATTAAGGAATGAATAATCCCTCAATATAATTATCTCTCACTTATTTAAA"
  measured_on: "Bacillus subtilis"
  quantity: "cleaved RNA product abundance"
  assay_value: 0.117
- sequence_chain: "ACAGACGAAGGAGCCGCCAAGAAGTTATTAAGTGATGAATAATCCCTCAATATAAATATCTCTCACTTATTTAAA"
  measured_on: "Bacillus subtilis"
  quantity: "cleaved RNA product abundance"
  assay_value: 0.146
- sequence_chain: "ACAGACGAAGGAGCCGCAAAGAATTTATTAAGGGATGAAAAATCCCTCAATATAAATATCTCTCACTTATTTAAA"
  measured_on: "Bacillus subtilis"
  quantity: "cleaved RNA product abundance"
  assay_value: 0.35

[Q] Give cleaved RNA product abundance for the following sequence: ACAGACGAAGGAGCCGCAAAGAAGTTATAAAGGGATAAATAATCCCTCAATATAAATATCTCTCACTTATTTAAA
[A] 0.358
